Literature-derived IC50 for UniProtKB Q9UGL1 follows.

Example results:
{"MOLECULE": "O=C(O)c1ccnc(-c2cn(Cc3ccccn3)cn2)c1", "TARGET OF ASSAY": "UniProtKB Q9UGL1", "IC50": "≤ 100 nM"}
{"MOLECULE": "O=S(=O)(C1CC1)N1CCC(n2cc(Oc3nc(O)c4ccncc4n3)cn2)CC1", "TARGET OF ASSAY": "UniProtKB Q9UGL1", "IC50": "≤ 100 nM"}
{"MOLECULE": "Cn1cnc(-c2nccc3c(O)nc(OCCO)nc23)c1", "TARGET OF ASSAY": "UniProtKB Q9UGL1", "IC50": "≤ 100 nM"}
{"MOLECULE": "CCc1ccnc2c1CCC2NCc1cc(C(=O)O)ccn1 (centres unmarked)", "TARGET OF ASSAY": "UniProtKB Q9UGL1", "IC50": "< 250 nM"}

Now take the following molecule into account.
Req: Field request: IC50 | item: Cc1ccc(COc2ccnn2-c2cc(C(=O)O)ccn2)c(F)c1
Resp: < 100 nM

====

pIC50: −log10 of the molar value.
Literature-derived pIC50 for Lysine-specific demethylase 5B (Homo sapiens, UniProt Q9UGL1) follows.

Example results:
{"COMPOUND": "O=C(O)c1ccncc1NCc1cccc2ccccc12", "pIC50": "≥ 7.00"}
{"COMPOUND": "Cn1cnc(-c2nccc3c(O)nc(OCC(F)(F)F)nc23)c1", "pIC50": "≥ 7.00"}

Req: Field request: pIC50 | item: O=C(O)c1ccncc1NCc1ccccc1F
Resp: ≥ 7.00

Req: Would you kindly repeat that for O=C(O)c1ccnc(-n2nccc2OCc2ccc(C3CC3)cc2F)c1 ?
Resp: 6.00 to 7.00

Req: Would you kindly repeat that for O=C(O)c1c(NCc2cccc(F)c2)ccc2nccn12 ?
Resp: < 6.00

Req: Would you kindly repeat that for Cc1nn(-c2cc(C(=O)O)ccn2)c(O)c1C ?
Resp: > 7.00

Req: Would you kindly repeat that for Oc1nc(OCCc2ccc(Cl)c(Cl)c2)nc2cnccc12 ?
Resp: 5.00 to 6.00

Req: Would you kindly repeat that for C=CC(=O)N1CCC(n2cc(Oc3nc(O)c4ccncc4n3)cn2)CC1 ?
Resp: ≥ 7.00

Req: Would you kindly repeat that for CC(C)Oc1ccc(CNc2ccc3nccn3c2C(=O)O)cc1 ?
Resp: < 6.00

Req: Would you kindly repeat that for CN1CCN(c2ccccc2CNc2ccc3nccn3c2C(=O)O)CC1 ?
Resp: ≥ 6.30

Req: Would you kindly repeat that for Oc1nc(Oc2cnn([C@@H]3CCCN(Cc4ccccc4)C3)c2)nc2cnccc12 ?
Resp: ≥ 7.00

Req: Would you kindly repeat that for CCNC(=O)C[C@@H]1CCCCN1Cc1cc(C(=O)O)ccn1 ?
Resp: < 5.60

Req: Would you kindly repeat that for CN(Cc1ccc(F)cc1)Cc1ccc(Oc2cc(C(=O)O)n3ccnc3c2)cc1 ?
Resp: < 6.00

Req: Would you kindly repeat that for N#CNC(=O)c1ccncc1Nc1nn(CCN2CCC(F)(F)CC2)c2ccc(F)cc12 ?
Resp: > 7.00

Req: Would you kindly repeat that for CC(Oc1cc(Cl)ccc1COc1ccnn1-c1cc(C(=O)O)ccn1)c1ccccc1 (stereo not shown) ?
Resp: 6.00 to 7.00

====

Literature-derived pIC50 for Lysine-specific demethylase 5B (Homo sapiens, UniProt Q9UGL1) follows.
pIC50: −log10 of the molar value.

Example results:
{"COMPOUND": "N#CNC(=O)c1ccncc1Nc1nn(CCN2CCC(F)(F)C2)c2ccc(F)cc12", "REPORTED RESULT": "> 7.00"}
{"COMPOUND": "COc1cc(C)nn1-c1cc(C(=O)O)ccn1", "REPORTED RESULT": "5.00 to 6.00"}
{"COMPOUND": "O=C(O)c1ccncc1NCc1cc2ccccc2o1", "REPORTED RESULT": "≥ 7.00"}
{"COMPOUND": "O=C(c1ccc(F)cc1)N1CCC(n2cc(Oc3nc(O)c4ccncc4n3)cn2)CC1", "REPORTED RESULT": "≥ 7.00"}
{"COMPOUND": "COc1ccccc1CNCCn1cnc(-c2cc(C(=O)O)ccn2)c1", "REPORTED RESULT": "≥ 7.00"}
{"COMPOUND": "O=C(O)c1ccnc(-n2nccc2OC2CCc3cc(Cl)ccc32)c1 (stereo not shown)", "REPORTED RESULT": "6.00 to 7.00"}
{"COMPOUND": "O=C(O)c1ccncc1Nc1nn(CCN2CCC(F)(F)CC2)c2ccc(F)cc12", "REPORTED RESULT": "> 7.00"}
{"COMPOUND": "CCCc1cccc(Oc2nc(O)c3ccncc3n2)c1", "REPORTED RESULT": "≥ 7.00"}
{"COMPOUND": "O=C(O)c1ccnc(-n2nc(-c3ccccc3F)cc2O)c1", "REPORTED RESULT": "5.00 to 6.00"}
{"COMPOUND": "C=CCN(CC=C)C(=O)[C@@H](CCS(C)(=O)=O)NCc1cc(C(=O)O)ccn1", "REPORTED RESULT": "5.60 to 6.60"}

Req: Field request: pIC50 | item: O=C(O)c1ccnc(-c2cn(CCc3ccccc3C(F)(F)F)cn2)c1
Resp: ≥ 7.00

Req: Would you kindly repeat that for O=C(O)c1ccnc(-n2nccc2OCc2ccc(Cl)cc2OCC(F)(F)F)c1 ?
Resp: > 7.00

Req: Would you kindly repeat that for Cn1cnc(-c2nccc3c(O)nc(Oc4ccc(F)c(F)c4)nc23)c1 ?
Resp: ≥ 7.00

Req: Would you kindly repeat that for Cc1cccc(-c2ccnn2-c2cc(C(=O)O)ccn2)c1 ?
Resp: 6.00 to 7.00

Req: Would you kindly repeat that for Oc1nc(OCCOCc2ccccc2)nc2cnccc12 ?
Resp: 6.00 to 7.00

Req: Would you kindly repeat that for Oc1nc(Oc2cnn([C@@H]3CCCNC3)c2)nc2cnccc12 ?
Resp: ≥ 7.00

Req: Would you kindly repeat that for Cn1cnc(-c2nccc3c(O)nc(O[C@H](c4ccccc4)C(F)(F)F)nc23)c1 ?
Resp: 5.00 to 6.00

Req: Would you kindly repeat that for O=C(O)c1ccnc(-n2nccc2OCc2ccc(Cl)cc2Cl)c1 ?
Resp: > 7.00

Req: Would you kindly repeat that for Cc1cccc(CN(C)CCn2cnc(-c3cc(C(=O)O)ccn3)c2)c1 ?
Resp: ≥ 7.00

====

Literature-derived pIC50 for Lysine-specific demethylase 5B (Homo sapiens, UniProt Q9UGL1) follows.
pIC50: −log10 of the molar value.

{"MOLECULE": "C=CCN(CC=C)C(=O)[C@@H](CC(=O)NCCCC)NCc1cc(C(=O)O)ccn1", "pIC50": "< 5.60"}

Req: Param readout = pIC50; param system = Lysine-specific demethylase 5B (Homo sapiens, UniProt Q9UGL1); param query = O=C(O)c1cc(CCCN2CCC(c3cc(Cl)cc(Cl)c3)CC2)cc2nccn12 ; response: value
Resp: ≥ 6.30

Req: Would you kindly repeat that for O=C(O)c1ccnc(-n2nc(C3CC3)cc2O)c1 ?
Resp: > 7.00

Req: Would you kindly repeat that for O=C(O)c1ccnc(-c2cn(CCNCC3CCC(F)(F)CC3)cn2)c1 ?
Resp: ≥ 7.00

Req: Would you kindly repeat that for Cn1cnc(-c2cc(C(=O)O)ccn2)c1-c1ccc(Cl)cc1C(F)(F)F ?
Resp: ≥ 7.00

Req: Would you kindly repeat that for O=C(O)c1ccncc1NCC1Cc2ccccc2O1 (stereo not shown) ?
Resp: ≥ 7.00

Req: Would you kindly repeat that for O=C(O)c1ccncc1Nc1nn(CCCO)c2ccc(F)cc12 ?
Resp: > 7.00

====

Literature-derived IC50 for Lysine-specific demethylase 5B (Homo sapiens) follows.

Example results:
{"LINE NOTATION": "Cc1ccc(C2CC2)c(CNc2cnccc2C(=O)O)c1", "IC50": "≤ 0.1 µM"}
{"LINE NOTATION": "CC(C)(C)OC(=O)N1CCC(n2cc(Oc3nc(O)c4ccncc4n3)cn2)CC1", "IC50": "≤ 0.1 µM"}
{"LINE NOTATION": "O=C(O)c1c(NCc2cc(F)ccc2C(F)(F)F)ccc2nccn12", "IC50": "≤ 0.5 µM"}
{"LINE NOTATION": "Cn1cnc(-c2nccc3c(O)nc(OCC4CCOCC4)nc23)c1", "IC50": "0.1 to 1 µM"}

Now take the following compound into account.
Req: Param readout = IC50; param system = Lysine-specific demethylase 5B (Homo sapiens); param query = Oc1nc(Oc2ccccc2)nc2cnccc12 ; response: value
Resp: ≤ 0.1 µM

====

Literature-derived IC50 for Lysine-specific demethylase 5B (Homo sapiens) follows.

Example results:
{"LINE NOTATION": "O=S(=O)(c1ccccc1)N1CC[C@@H](n2cc(Oc3nc(O)c4ccncc4n3)cn2)C1", "IC50": "≤ 100 nM"}
{"LINE NOTATION": "N#CNC(=O)c1ccncc1Nc1nn([C@H]2CCOC2)c2ccc(F)cc12", "IC50": "< 100 nM"}
{"LINE NOTATION": "CN(CCn1cnc(-c2cc(C(=O)O)ccn2)c1)Cc1ccc(C(F)(F)F)cc1", "IC50": "≤ 100 nM"}

Now take the following compound into account.
Req: Field request: IC50 | item: CCOc1nc(O)c2ccncc2n1
Resp: ≤ 100 nM
